- target-or-system: VDAC1 (Rattus norvegicus)
- Construct: from tissue; host or cells: Percoll-purified rat brain and liver mitochondria
- Sequence (Q9Z2L0 whole entry): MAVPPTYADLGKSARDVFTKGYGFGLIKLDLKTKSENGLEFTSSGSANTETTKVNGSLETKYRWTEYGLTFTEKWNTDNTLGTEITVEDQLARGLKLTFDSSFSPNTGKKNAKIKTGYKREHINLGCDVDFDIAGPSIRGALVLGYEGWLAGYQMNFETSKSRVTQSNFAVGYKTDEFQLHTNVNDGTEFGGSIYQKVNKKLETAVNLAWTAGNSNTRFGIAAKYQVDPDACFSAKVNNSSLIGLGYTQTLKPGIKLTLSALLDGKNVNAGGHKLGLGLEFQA
- assay-name: Affinity labeling of rat mitochondria with the tritiated spiro compound, SDS-PAGE and fluorography
- Assay type: binding
- setup-conditions: rat brain mitochondria; 10 nM radiolabel
measured-attribute: Effect on VDAC1 labeling (incorporation of radioactivity) by the tritiated spiro compound

compound	recorded-result
C=C1COc2ccc(Br)cc2C1=O	inhibited
Nc1ncnc2c1ncn2[C@@H]1O[C@H](COP(=O)(O)OP(=O)(O)O)[C@@H](O)[C@H]1O	did not affect
C=C1[C@@H]2CC[C@H]3[C@]4(C)C[C@H](O[C@@H]5O[C@H](CO)[C@@H](OS(=O)(=O)O)[C@H](OS(=O)(=O)O)[C@H]5OC(=O)CC(C)C)C[C@@H](C(=O)O)[C@H]4CC[C@]3(C2)[C@H]1O [ATR, atractyloside]	did not affect
CN1CCN(CCCN2c3ccccc3Sc3ccc(C(F)(F)F)cc32)CC1	did not affect
CCN(CC)CC1COc2ccc(Br)cc2C1=O (centres unmarked)	inhibited

As a next step, examine the compound that follows.
Record `CO[C@H](C/C=C\C=C\CC/C=C/C[C@H](C)/C=C/C(=C\C(=O)O)CC(=O)O)/C(C)=C\C=C(/C)C(=O)O` . Reported Effect on VDAC1 labeling (incorporation of radioactivity) by the tritiated spiro compound: did not affect
